Values compiled from ChEMBL document CHEMBL3259662.

# testProtocol: Selectivity index, ratio of cytotoxicity for human BT549 cells to IC50 for Cryptococcus neoformans ATCC 90113
# Assay type: toxicity, cell-based, BT-549
# conditionLabel: read-out: Selectivity Index
Give selectivity ratio for every item shown.

QUERY: Would you mind telling me what selectivity ratio value was observed for "COC(=O)[C@H](CCCNC(=N)N)NC(=O)[C@H](Cc1c[nH]c(-c2ccc(-c3ccccc3)cc2)n1)NC(=O)[C@H](CCCNC(=N)N)NC(=O)OC(C)(C)C" ?
RESULT: > 12.5

QUERY: Lookup "COC(=O)[C@H](CCCNC(=N)N)NC(=O)[C@H](Cc1c[nH]c(-c2ccc(C(C)(C)C)cc2)n1)NC(=O)[C@@H](N)CCCNC(=N)N"
RESULT: > 16.3

QUERY: Lookup "COC(=O)[C@H](CCCNC(=N)N)NC(=O)[C@H](Cc1c[nH]c(-c2ccc(OC)cc2)n1)NC(=O)[C@@H](N)CCCNC(=N)N"
RESULT: > 2.5
